Data credit: patent US8648066B2

Assay Target: mTOR/GbL/Raptor (mTORC1) (Homo sapiens)
Procedure Summary: mTOR/GbL/Raptor (mTORC1) ELISA assay
Assay type: biochemical
Assay Setup: phosphorylation of 4E-BP1; 0.2 nM mTORC1, 10 μM ATP; read-out: IC50 in this assay (mTORC1 ELISA)
Catalogue of IC50 values

compound=COc1ccc2c(N3CCOc4ccc(-c5cnc6nc[nH]c6c5)cc4C3)nc(C)nc2c1 quantity_kind=IC50 reported_value="50 to 250 nM"

Input line: For the compound COc1ccc2c(N3CCOc4ccc(-c5cnc6[nH]cnc6c5)cc4C3)nc(CN(C)C)nc2c1 , report IC50.
Output line: 1000 to 2000 nM

Input line: For the compound CCNc1nc2ncc(-c3ccc4c(c3)CN(c3nc(C)nc5cc(OC)ccc35)CCO4)cc2[nH]1 , report IC50.
Output line: 10 to 50 nM

Input line: For the compound COc1ccc(-c2ccc3c(c2)CN(c2nc(CN(C)C)nc4c2CC(C)(C)CC4)CCO3)cc1C(C)=O , report IC50.
Output line: 50 to 250 nM

Input line: For the compound CNC(=O)c1ccc(-c2ccc3c(c2)CN(c2ncnc(C)c2Cc2ccc(F)cc2)CCO3)nc1 , report IC50.
Output line: 250 to 1000 nM

Input line: For the compound CCC1CCc2ncnc(N3CCOc4ccc(-c5cnc6nc(C)[nH]c6c5)cc4C3)c2C1 (stereo not drawn) , report IC50.
Output line: ≤ 10 nM

Input line: For the compound CCC(N)CNS(=O)(=O)c1cc(-c2ccc3c(c2)CN(c2ncnc4c2CC(C)(C)CC4)CCO3)cnc1N (stereo not drawn) , report IC50.
Output line: 10 to 50 nM

Input line: For the compound CCNc1nc2ccc(-c3ccc4c(c3)CN(c3ccnc5cc(OC)ccc35)CCO4)cc2[nH]1 , report IC50.
Output line: 10 to 50 nM

Input line: For the compound CNC(=O)c1ccc(-c2ccc3c(c2)CN(c2ncnc(C)c2Cc2ccc(F)cc2)CCO3)cc1 , report IC50.
Output line: ≤ 10 nM

Input line: For the compound Cc1nc2cc(-c3ccc4c(c3)CN(c3nc(NCCN(C)C)nc(C)c3Cc3ccc(F)cc3)CCO4)ccc2[nH]1 , report IC50.
Output line: 10 to 50 nM

Input line: For the compound CC(C)Nc1nc2ccc(-c3ccc4c(c3)CN(c3ccnc5ccccc35)CCO4)cc2[nH]1 , report IC50.
Output line: ≥ 2000 nM

###

Catalogue of IC50 values
Assay Target: mTOR/GbL/Raptor (mTORC1) (Homo sapiens)
Procedure Summary: mTOR/GbL/Raptor (mTORC1) ELISA assay
Assay Setup: phosphorylation of 4E-BP1; 0.2 nM mTORC1, 10 μM ATP; read-out: IC50 in this assay (mTORC1 ELISA)

compound="COc1cc2ncnc(N3CCOc4ccc(-c5ccc6nc(C)[nH]c6c5)cc4C3)c2cc1Cl [Example 38]" reported_value="10 to 50 nM"

Input line: For the compound Cc1nc2ccc(-c3ccc4c(c3)CN(c3ncnc5ccc(O)cc35)CCO4)cc2[nH]1 [Example 158] , report IC50.
Output line: 10 to 50 nM

Input line: For the compound CN(C)Cc1nc2c(c(N3CCOc4ccc(-c5ccc6[nH]c(CF)nc6c5)cc4C3)n1)CC(C)(C)CC2 [Example 322] , report IC50.
Output line: 10 to 50 nM

Input line: For the compound Cc1nc2ncc(-c3ccc4c(c3)CN(c3ncnc(C)c3C(C)C)CCO4)cc2[nH]1 [Example 564] , report IC50.
Output line: ≤ 10 nM

Input line: For the compound CCNc1nc2ncc(-c3ccc4c(c3)CN(c3nc(C)nc5c3CC(C)(C)CC5)CCO4)cc2[nH]1 [Example 290] , report IC50.
Output line: ≤ 10 nM

Input line: For the compound CC[C@H]1CCc2c(nc(C)nc2N2CCOc3ccc(-c4cnc5nc(NC(=O)OC)[nH]c5c4)cc3C2)C1 [Example 577] , report IC50.
Output line: 10 to 50 nM

Input line: For the compound CCNc1nc2ccc(-c3ccc4c(c3)CN(c3ncnc5c3CC(C)(C)CC5)CCO4)cc2[nH]1 [Example 255] , report IC50.
Output line: ≤ 10 nM

Input line: For the compound COc1cc2ncnc(N3CCOc4ccc(-c5ccc6nc(C)[nH]c6c5)cc4C3)c2cc1Br [Example 43] , report IC50.
Output line: 50 to 250 nM

###

Assay Target: mTOR/GbL/Raptor (mTORC1) (Homo sapiens, UniProt P42345)
Procedure Summary: mTOR/GbL/Raptor (mTORC1) ELISA assay
Assay Setup: phosphorylation of 4E-BP1; 0.2 nM mTORC1, 10 μM ATP; read-out: IC50 in this assay (mTORC1 ELISA)
Quantity Kind: IC50

# annotated cases, reported IC50 shown
compound=CNc1ncc(-c2ccc3c(c2)CN(c2ncnc4c2CC(C)(C)CC4)CCO3)cc1S(=O)(=O)NCCO quantity_kind=IC50 reported_value="≤ 0.01 µM"
compound=Cc1nc2ccc(-c3ccc4c(c3)CN(c3nc(CNCCF)nc5c3CC(C)(C)CC5)CCO4)cc2[nH]1 quantity_kind=IC50 reported_value="≤ 0.01 µM"
compound="Cc1nc2cc(-c3ccc4c(c3)CN(c3nc(C(C)N)nc5c3CC(C)(C)CC5)CCO4)ccc2[nH]1 (stereo not shown)" quantity_kind=IC50 reported_value="≤ 0.01 µM"
compound=c1ccc2c(N3CCOc4ccc(-c5ccc6nc[nH]c6c5)cc4C3)ccnc2c1 quantity_kind=IC50 reported_value="0.25 to 1 µM"

Input line: Provide IC50, system mTOR/GbL/Raptor (mTORC1) (Homo sapiens, UniProt P42345), entry CCN(C)S(=O)(=O)c1cc(-c2ccc3c(c2)CN(c2ncnc4c2CC(C)(C)CC4)CCO3)cnc1N
Output line: 0.05 to 0.25 µM

Input line: Provide IC50, system mTOR/GbL/Raptor (mTORC1) (Homo sapiens, UniProt P42345), entry Cc1ncnc(N2CCOc3ccc(-c4ccc(C(=O)N[C@H]5CCNC5)cc4)cc3C2)c1Cc1ccc(F)cc1
Output line: 0.25 to 1 µM

Input line: Provide IC50, system mTOR/GbL/Raptor (mTORC1) (Homo sapiens, UniProt P42345), entry CC1(C)CCc2ncnc(N3CCOc4ccc(-c5cnc(N)c(S(=O)(=O)NCCO)c5)cc4C3)c2C1
Output line: ≤ 0.01 µM

###

Catalogue of pIC50 values
Assay Target: mTOR/GbL/Raptor (mTORC1) (Homo sapiens, UniProt P42345)
Procedure Summary: mTOR/GbL/Raptor (mTORC1) ELISA assay
Assay Setup: phosphorylation of 4E-BP1; 0.2 nM mTORC1, 10 μM ATP; read-out: IC50 in this assay (mTORC1 ELISA)
pIC50: −log10 of the molar value.

compound="Cc1ncnc(N2CCOc3ccc(-c4cnc5nc(N)[nH]c5c4)cc3C2)c1Cc1ccc(F)cc1 [Example 176]" assay_target="mTOR/GbL/Raptor (mTORC1) (Homo sapiens, UniProt P42345)" reported_value="≥ 8.00"

Input line: For the compound CCNc1nc2ccc(-c3ccc4c(c3)CN(c3ccnc5cc(F)ccc35)CCO4)cc2[nH]1 [Example 268] , report pIC50.
Output line: 6.60 to 7.30

Input line: For the compound Cc1nc2ncc(-c3ccc4c(c3)CN(c3ncnc5c3CCC(C(C)O)C5)CCO4)cc2[nH]1 (stereo not drawn) [Example 340] , report pIC50.
Output line: 6.60 to 7.30

Input line: For the compound Cc1ncnc(N2CCOc3ccc(-c4ccc(C(=O)NCC(F)F)cc4)cc3C2)c1Cc1ccc(F)cc1 [Example 174] , report pIC50.
Output line: ≥ 8.00

Input line: For the compound Cc1nc2ncc(-c3ccc4c(c3)CN(c3nc(CN[C@@H](C)C(=O)O)nc5c3CC(C)(C)CC5)CCO4)cc2[nH]1 [Example 596] , report pIC50.
Output line: ≥ 8.00

Input line: For the compound Cc1nc(CN(C)C)nc(N2CCOc3ccc(-c4cnc5sc(N)nc5c4)cc3C2)c1C [Example 671] , report pIC50.
Output line: 6.00 to 6.60

###

Catalogue of IC50 values
Assay Target: mTOR/GbL/Raptor (mTORC1) (Homo sapiens)
Procedure Summary: mTOR/GbL/Raptor (mTORC1) ELISA assay
Assay Setup: phosphorylation of 4E-BP1; 0.2 nM mTORC1, 10 μM ATP; read-out: IC50 in this assay (mTORC1 ELISA)

compound="Cc1nc2ncc(-c3ccc4c(c3)CN(c3nc(-c5ccccn5)nc5c3CC(C)(C)CC5)CCO4)cc2[nH]1 [Example 473]" assay_target="mTOR/GbL/Raptor (mTORC1) (Homo sapiens)" quantity_kind=IC50 reported_value="10 to 50 nM"

Input line: For the compound CCNc1nc2ccc(-c3ccc4c(c3)CN(c3ccncn3)CCO4)cc2[nH]1 [Example 277] , report IC50.
Output line: 1000 to 2000 nM

Input line: For the compound Nc1nc2ncc(-c3ccc4c(c3)CN(c3ncnc5ccc(Br)cc35)CCO4)cc2[nH]1 [Example 181] , report IC50.
Output line: ≤ 10 nM

Input line: For the compound CC(C)(CO)CNS(=O)(=O)c1cc(-c2ccc3c(c2)CN(c2ncnc4c2CC(C)(C)CC4)CCO3)cnc1N [Example 374] , report IC50.
Output line: 50 to 250 nM

Input line: For the compound CC(O)CNS(=O)(=O)c1cc(-c2ccc3c(c2)CN(c2ncnc4c2CC(C)(C)CC4)CCO3)cnc1N (centres unmarked) [Example 372] , report IC50.
Output line: 10 to 50 nM

Input line: For the compound CC1(C)CCc2ncnc(N3CCOc4ccc(-c5cnc6c(c5)S(=O)(=O)NC(=O)N6)cc4C3)c2C1 [Example 571] , report IC50.
Output line: 50 to 250 nM
